System: P. aeruginosa 27853
method summary: MIC / killing activity in the presence of human serum (hsMIC, 50% human serum)
Type: cell-based, Pseudomonas aeruginosa
conditions: ratio
observable: hsMIC/MIC
Respond using a number only.

// below: answered sequences
* GGGKRFKKFFKKLKNSVKKRAKKFFKKPRVIGVSIPF [Peptide P296] | 0.25
* GGGKFFRKLKKSVKKRAKEFFKKPRVIGVSIPF [Peptide P297] | 2

I have this sequence here, GGGGRFKRFRKKFKKLFKKLSPVIPLLHLG [Peptide P295] , and I need its recorded hsMIC/MIC.
0.5

* * *

System: E. coli
method summary: Minimal inhibitory concentration (MIC) assay, broth microdilution
Type: cell-based, Escherichia coli
conditions: E. coli 43745; in the presence of PBS
observable: MIC Eco 43745
State the value, then name its unit.

// below: answered sequences
* GGGGLRRLGRKIAHGIKKYGPTILRIIRIAG [Peptide P293] | 4 µg/mL
* GGGKFFRKLKKSVKKRAKEFFKKPRVIGVSIPF [Peptide P297] | 2 µg/mL
* GGGGIGKFLKKAKKFGKAFVKILKK [Peptide P261] | 4 µg/mL
* GGGRGLRRLGRKIAHGVKKYGPTVLRIIKKYG [Peptide P294] | 2 µg/mL
* GGGLLGDFFRKSKEKIGKEFKRIVQRIKDFLRNLVPRTES [Peptide P265] | 8 µg/mL

I have this sequence here, GGGKRFKKFFKKLKNSVKKRAKKFFKKPRVIGVSIPF [Peptide P296] , and I need its recorded MIC Eco 43745.
4 µg/mL

// query: GGGGLRKRLRKFRNKIKEKLKKIGQKIQGLLPKLA [Peptide P271]
4 µg/mL

* * *

System: P. aeruginosa
method summary: Minimal inhibitory concentration (MIC) assay, broth microdilution
Type: cell-based, Pseudomonas aeruginosa
conditions: P. aeruginosa 27853; in the presence of PBS
observable: MIC Pae 27853 (µg/mL)
Please respond with the number in µg/mL and leave the unit unwritten.

// below: answered sequences
* GGGKRFKKFFKKLKNSVKKRAKKFFKKPRVIGVSIPF [Peptide P296] | 4
* GGGGLRRLGRKIAHGIKKYGPTILRIIRIAG [Peptide P293] | 8
* GGGGRFKRFRKKFKKLFKKLSPVIPLLHLG [Peptide P295] | 4

// next entry
Please provide the recorded MIC Pae 27853 for GGGKFFRKLKKSVKKRAKEFFKKPRVIGVSIPF [Peptide P297] , tested on P. aeruginosa.
4
